Test system: HepG2 (liver cancer) cells
experimental protocol: MTT cytotoxicity assay, HepG2
Type: cell-based
run conditions: Homo sapiens, HepG2, 72 h, read-out: Cytotoxicity, mean IC50
measured metric: pIC50
A value of pIC50 is the negative decimal logarithm of a concentration given in moles per litre.

Request: Form field: pIC50 recorded for COc1ccc2cc1Oc1ccc(cc1)C[C@H]1c3cc(c(OC)cc3CCN1C)Oc1c(OC)c(OC)c(OC)c3c1[C@H](C2)N(C)CC3 with HepG2 (liver cancer) cells (enter value)
Response: 5.13

----------
System: PC3 (prostate cancer) cells
experimental protocol: MTT cytotoxicity assay, PC3
Assay type: cell-based
run conditions: 72 h, read-out: Cytotoxicity, mean IC50
measured metric: pIC50
A value of pIC50 is the negative decimal logarithm of a concentration given in moles per litre.

Request: Which pIC50 value is on record for COc1ccc2cc1Oc1ccc(cc1)C[C@H]1c3cc(c(OC)cc3CCN1C)Oc1c(OC)c(OC)c(OC)c3c1[C@H](C2)N(C)CC3 ?
Response: 4.94
